// reported pIC50 for each item listed
Target: Peroxisome proliferator-activated receptor gamma (Homo sapiens, UniProt P37231)
Sequence (P37231 whole entry): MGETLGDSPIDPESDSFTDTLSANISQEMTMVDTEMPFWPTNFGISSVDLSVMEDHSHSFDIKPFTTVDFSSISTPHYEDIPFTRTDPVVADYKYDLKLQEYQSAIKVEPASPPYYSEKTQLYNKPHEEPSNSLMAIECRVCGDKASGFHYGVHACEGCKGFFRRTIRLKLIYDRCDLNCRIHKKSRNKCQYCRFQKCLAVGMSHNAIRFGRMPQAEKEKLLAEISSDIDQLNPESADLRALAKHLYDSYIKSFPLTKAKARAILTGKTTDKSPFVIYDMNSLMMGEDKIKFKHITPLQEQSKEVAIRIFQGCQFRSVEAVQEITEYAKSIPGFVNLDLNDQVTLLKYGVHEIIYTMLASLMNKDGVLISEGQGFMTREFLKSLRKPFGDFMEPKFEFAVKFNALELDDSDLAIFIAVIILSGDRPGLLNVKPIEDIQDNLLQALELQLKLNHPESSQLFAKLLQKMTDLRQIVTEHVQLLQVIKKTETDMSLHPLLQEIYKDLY
Assay: Displacement of fluormone from human PPARgamma LBD expressed in Escherichia coli BL21 DE3 by fluorescence polarization assay
Reminder that pIC50 means the negative base-10 logarithm of the concentration expressed in mol/L.

STRUCTURE | TEST TARGET | pIC50
O=C(O)Cn1c(SCCOc2ccc3ccccc3c2)nc2ccccc21 | Peroxisome proliferator-activated receptor gamma (Homo sapiens, UniProt P37231) | 5.65
O=C(O)c1ccc(-n2nnnc2SCc2ccccc2Br)cc1 | Peroxisome proliferator-activated receptor gamma (Homo sapiens, UniProt P37231) | 5.29

Proceeding to the next molecule to report its pIC50.
stdin: Find the measured pIC50: item O=C(O)c1ccc(COc2ccccc2C=C2C(=O)c3ccccc3C2=O)cc1 , target or system Peroxisome proliferator-activated receptor gamma (Homo sapiens, UniProt P37231).
stdout: 5.94

* * *

assay: Solubility of the compound in DMSO; format: physicochemical

STRUCTURE | solubility
CCOc1cc(/C=C2/SC(Nc3cccc(C(=O)O)c3)=NC2=O)ccc1OC | Insoluble
CN1CCN(S(=O)(=O)c2ccc(SCC(=O)O)nc2)CC1 | Insoluble
O=C(O)Cn1c(SCCOc2ccc3ccccc3c2)nc2ccccc21 | soluble
O=C(O)Cn1ccc2cc(OCc3ccccc3)ccc21 | soluble

* * *

target: Peroxisome proliferator-activated receptor gamma (Homo sapiens); test: Binding affinity to human PPARgamma LBD expressed in Escherichia coli BL21 DE3 assessed as melting temperature at 33 uM after 2 hrs using SYPRO orange dye
// reported Tm for each item listed
Field format: number, assumed °C, no unit text.

Here's what some known entries look like.
COMPOUND | MEAS VALUE
Cc1ccc(Cn2c(=N)n(CC(=O)O)c3ccccc32)cc1 | 46
Cc1ccc(S(=O)(=O)Cc2noc(CCC(=O)O)n2)cc1 | 46
CN(CCOc1ccc(CC2SC(=O)NC2=O)cc1)c1ccccn1 (stereo unspecified) | 49
O=C(CN1C(=O)c2ccccc2C1=O)NCc1ccc(C(=O)O)cc1 | 46
O=C(O)Cn1ccc2cc(OCc3ccccc3)ccc21 | 46

stdin: Find the measured Tm: item C[C@@H](Oc1ccc(/C=C2/C(=O)N=C(O)N(c3cccc(Br)c3)C2=O)cc1)C(=O)O , target or system Peroxisome proliferator-activated receptor gamma (Homo sapiens).
stdout: 46

stdin: Continue with Cc1ccccc1Nc1nc(N)nc(CSc2nc3ccccc3c(=O)[nH]2)n1
stdout: 46

stdin: Continue with COc1cccc(/C=C2\SC(=S)N(CCCC(=O)N3CCC(C(=O)O)CC3)C2=O)c1
stdout: 49

stdin: Continue with O=C(O)Cn1c(SCCOc2ccc3ccccc3c2)nc2ccccc21
stdout: 46

stdin: Continue with CSc1ccccc1-n1nnnc1SCC(=O)O
stdout: 46

stdin: Continue with O=C(O)c1ccc(COc2ccccc2C=C2C(=O)c3ccccc3C2=O)cc1
stdout: 53

Sourced from ChEMBL document CHEMBL2434832
